Would you kindly list Enzyme Activity Endpoint Assay: Fc for each of these proteins?
- system: pooled human IgG
Give bare numbers, in ng/µL.

protein	reportedEndpoint	recordedNumber
PRT-43 (protein) MANQEIRYSEVTPYHVTSVWTKGVTPPANFTQGEDVFHAPYVANQGWYDITKTFNGKDDLLCGAATAGNMLHWWFDQNKDQIDRYLEEHPEKQKINFNGEQMFDVKEAIDTKNDQTDSKLFEYFKEKAFPYLSTKHLGVFPDLVIDMFINGYRLSLTNHGPTPVKEGSKDPRGGIFDAVFTRGDQSKLLTSRHDLKEKNLKEISDLIKKELTEGKALGLSHTYANVRINHVINLWGADFDSNGNLKAIYVTDSDSNASIGMKKYFVGVNSAGKVAISAKEIKEDNIGAQVLGLFTLSTGQDSWNQTN	Enzyme Activity Endpoint Assay: Fc	89
PRT-26 (protein) MANQEIRYSEVTPYHVTSVWTKGVTPPANFTQGEDVFHAPYVANQGWYDITKTFNGKDDLLCGAATAGNMLHWWFDQNKDQIERYLKEHPEKQKINFNGEQMFDVKEAIDTKDSQTDSKLFEYFKEKAFPYLSTKHLGVFPDHVLDMFINGYRLSLTNHGPTPVKEGSKDPRGGIFDAVFTRGDQSKLLTSRHDFKEKTLKEISDLIKQELTEGKALGLSHTYANVRINHVINLWGADFDSEGNLKAIYVTDSDSNASIGMKKYFVGVNSAGKVAISAKEIKEDNIGAQVLGLFTLSTGQDIWNQTN	Enzyme Activity Endpoint Assay: Fc	101
PRT-16 (protein) MANQEIRYSEETPYHITSVWTKGVTPPTDFTQGEDVFHAPYVANQGWYDITKTFNGKDDLLCGAATAGNMLHWWFDQNKDQIERYLKKHPEKQKINFNGEQMFDVKEAIDTKDSQTDSKLFEYFKDKAFPYLSTKHLGVFPDHVLDMFINGYRLNLTNHGPTPVKEGSKDPRGGIFDAVFTRGDQSKLLTSRHDFKEKNLKEISDLIKQELQEGKALGLSHTYANVRINHVINLWGADFDSNGNLKAIYVTDSDSNASIGMKKYYVGVNAAGKVAISAKEIEEDNIGAQVLGLFTLSLGQDIWNQTN	Enzyme Activity Endpoint Assay: Fc	0
PRT-591 (protein) MANQEIRYSEETPSTITSVWTKGVTPPTDFIQNEDVLHAPYIANQGWYDITKTFNGKDDLLCGAATAGNMLHWWFDQNKEQIKNYLKKHPEKQKINFNGEQMFDVKEAIDTKDSQTDSALFEYFKDKAFPYLSTKHLGVFPDHVIDMFINGYRLSLTNHGPTPVKRGTKDPRGGIFDAVFTRGDQSKLLTSRHDFKEKTLNEISDLIKQELTEGKALGLSHTYANVRINHVINLWGADFNAEGNLEAIYVTDSDSNASIGMKKYYVGVNSAGKVAISAKEIEGDNIGAQVLGLFTLSTGQDIWNQTNLEHHHHHH	Enzyme Activity Endpoint Assay: Fc	34
PRT-44 (protein) MANQEIRYSEVTPYHVTSVWTKGVTPPANFTQGEDVFHAPYVANQGWYDITKTFNGGDDLLCGAATAGNMLHWWFDQNKDQIDRYLEEHPEKQKINFNGEQMFDVKEAIDTKNSQTDSKLFEYFKEKAFPYLSTKHLGVFPDLVLDMFINGYRLSLTNHGPTPVKEGSKDPRGGFFDDVFTRGDQSKLLTSRHDFKEKNLKEISDLIKKELTEGKALGLSHTYANVRINHVINLWGADFDSNGNLKAIYVTDSDSNASIGMKKYFVGVNSAGKVAISAKEIKEDNIGAQVLGLFTLSTGQDSWNQTN	Enzyme Activity Endpoint Assay: Fc	78

Each of the following entries comes with a recorded value; kindly state Enzyme Activity Endpoint Assay: Fc for each.
1. PRT-597 (protein) MANQEIRYSEETPSTITSVWTKGVTPPTDFIQNEDVLHAPYIANQGWYDITKTFNGKDDLLCGAATAGNMLHWWFDQNKEQIENYLKKHPEKQKINFNGEQMFDVKEAIDTKDSQTDSALFEYFKDKAFPYLSTKHLGVFPDHVIDMFINGYRLSLTNHGPTPVKRGTKDPRGGIFDAVFTRGDQSKLLTSRHDFKEKTLNEISDLIKQELTEGKALGLSHTYANVRINHVINLWGADFNANGNLEAIYVTDSDSNASIGMKKYYVGVNSAGKVAISAKEIEGDNIGAQVLGLFTLSTGQDIWNQTNLEHHHHHH
2. PRT-31 (protein) MANQEIRYSEVTPYHVTSVWTKGVTPPANFTQGEDVFHAPYVANQGWYDITKTFNGKDDLLCGAATAGNMLHWWFDQNKDQIERYLEEHPEKQKINFNGEQMFDVKEAIDTKNHQLDSKLFEYFKEKAFPYLSTKHLGVFPDHVIDMFINGYRLSLTNHGPTPVKEGSKDPRGGIFDAVFTRGDQSKLLTSRHDFKEKNLKEISDLIKKELTEGKALGLSHTYANVRINHVINLWGADFDSNGNLKAIYVTDSDSNASIGMKKYFVGVNSAGKVAISAKEIKEDNIGAQVLGLFTLSTGQDSWNQTN
3. PRT-15 (protein) MANQEIRYSEVTPYTITSVWTKGVTPPTNFTQGEDVFHAPYVANQGWYDITKTFNGKDDLLCGAATAGNMLHWWFDQNKDEIERYLKEHPEKQKINFNGEQMFDVKEAIDTKDSQTDSKLFEYFKDKAFPYLSTKHLGVFPDHVIDMFINGYRLSLTNHGPTPVKRGSKDPRGGIFDAVFTRGDQSKLLTSRHDFKEKNLNEISDLIKQELTEGKALGLSHTYANVRINHVINLWGADFNSNGNLKAIYVTDSDSNASIGMKKYFVGVNKAGKVAISAKEIKGDNIGAQVLGLFTLSTGQDIWEQTN

Return:
1: 315; 2: 126; 3: 136
